Listed molecules paired with reported composite z-score
Assay: small-molecule binders of probe aNOTCH2, primary screen, biochemical, small-molecule microarray, 635/667 nm fluorescence (AID 1121);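 note: score merges feature fluorescence read at 667 nm with its signal to noise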
Conditions: higher = more signal

{"molecule": "COc1ccc(CCNC(=O)[C@@H]2c3ccccc3C(=O)N(Cc3ccccc3Cl)[C@H]2c2ccc(CO)cc2)cc1", "composite z-score": -0.0712}
{"molecule": "COC(=O)C(CC#Cc1ccc2c(c1)[C@]1(C(=O)N2)[C@H](c2ccc(OCCO)cc2)N2[C@H](c3ccccc3)[C@H](c3ccccc3)OC(=O)[C@H]2[C@@H]1C(=O)Nc1nc2ccccc2s1)C(=O)OC", "composite z-score": -0.183}
{"molecule": "CC1CC/C=C\\[C@H]2OC34C=CCN(C(C)(C)C)C(=O)[C@H]3N(CCO)C(=O)[C@@H]4C2C(=O)O1 (some centres not stated)", "composite z-score": -0.148}
{"molecule": "C=CC[C@]1(C(=O)NCCCOC)N=C(c2ccc(OCCCO)cc2)O[C@H]1c1ccccc1CN=[N+]=[N-]", "composite z-score": -0.0013}
{"molecule": "C=CCC(OC(C)=O)[C@@H]1[C@@H](N(Cc2ccc(-c3ccccc3)cc2)C(=O)c2ccc(-c3ccccc3)cc2)c2cc(OCCCO)ccc2N1C(=O)Cc1ccc2ccccc2c1 (some centres not stated)", "composite z-score": -0.213}
{"molecule": "COc1ccc(C#Cc2ccc3c(c2)[C@]2(C(=O)N3)[C@H](C(=O)NC[C@H](O)c3ccccc3)[C@H]3C(=O)O[C@H](c4ccccc4)[C@H](c4ccccc4)N3[C@@H]2c2ccc(O)cc2)cc1", "composite z-score": -0.139}
{"molecule": "NCCCCCNC(=O)[C@@H]1C[C@@H]2C(=O)N[C@@H](Cc3ccccc3)C(=O)N2[C@@H]1c1ccc(O)cc1", "composite z-score": -0.108}
